system name: T1, soluble form of GPC3 core protein (human, UniProt P51654 25-563)
T1 construct: not shown: His tag added to the C-terminus
T1 sequence (P51654 25-563 S495A/S509A, form in doubt): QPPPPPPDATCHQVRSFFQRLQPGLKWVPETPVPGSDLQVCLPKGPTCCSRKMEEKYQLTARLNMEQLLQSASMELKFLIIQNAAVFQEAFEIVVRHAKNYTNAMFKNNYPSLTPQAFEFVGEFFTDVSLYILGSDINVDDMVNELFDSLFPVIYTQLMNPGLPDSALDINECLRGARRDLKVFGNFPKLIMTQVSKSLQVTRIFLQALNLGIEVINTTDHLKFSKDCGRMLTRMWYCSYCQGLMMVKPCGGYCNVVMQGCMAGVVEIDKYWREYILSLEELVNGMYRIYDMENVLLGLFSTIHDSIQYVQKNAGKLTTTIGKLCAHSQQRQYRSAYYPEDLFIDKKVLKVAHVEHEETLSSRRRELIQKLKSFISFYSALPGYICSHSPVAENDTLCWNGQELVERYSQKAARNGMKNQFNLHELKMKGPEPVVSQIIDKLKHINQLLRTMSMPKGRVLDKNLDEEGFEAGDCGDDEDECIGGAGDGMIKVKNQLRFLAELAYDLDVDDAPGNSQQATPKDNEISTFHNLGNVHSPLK
method notes: competitive ELISA on coated soluble GPC3 core protein; labelled competitor biotin-M10D2;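 note: Biotin-labelled antibody added as 10 µL at 10 µg/mL for 1 h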
measured parameter: Inhibition of the binding of indicated biotin-Mab to sGPC3 core (%)
Your answer is read as %, so omit the unit and give the number.

Example entries and their recorded answers appear below.
M11F1 (antibody, V domains shown, Mouse monoclonal from hybridoma) VH: QVTLKESGPGILQPSQTLSLTCSFSGFSLSIYGMGVGWIRQPSGKGLEWLANIWWNDDKYYNSALKSRLTISKDTSNNQVFLKISSVDTADTATYYCAQIGYFYFDYWGQGTTLTVSS VL: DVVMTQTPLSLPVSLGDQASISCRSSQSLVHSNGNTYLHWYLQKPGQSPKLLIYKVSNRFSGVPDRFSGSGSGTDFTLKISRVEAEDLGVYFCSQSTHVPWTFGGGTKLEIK | 24.6
M5B9 (antibody, V domains shown, Mouse monoclonal from hybridoma) VH: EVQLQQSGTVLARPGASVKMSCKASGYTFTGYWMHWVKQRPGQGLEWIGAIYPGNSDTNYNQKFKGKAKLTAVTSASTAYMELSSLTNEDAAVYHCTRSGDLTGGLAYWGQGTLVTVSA VL: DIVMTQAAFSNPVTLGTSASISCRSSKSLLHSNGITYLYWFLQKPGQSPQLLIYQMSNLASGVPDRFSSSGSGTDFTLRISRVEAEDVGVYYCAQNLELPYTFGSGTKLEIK | 13.4

Next item in the queue.
[ask] Entry M6B1 (antibody, V domains shown, Mouse monoclonal from hybridoma) VH: EVQLVESGGDLVKPGGSLKLSCAASGFTFSSYAMSWVRQTPEKRLEWVAAINSNGGTTYYPDTMKDRFTISRDNAKNTLYLQMSSLRSEDSALYYCTRHNGGYENYGWFAYWGQGTLVTVSA VL: DIQMTQSPSSLSASLGGKVTITCKASQDINKNIIWYQHKPGKGPRLLIWYTSTLQPGIPSRFSGSGSGRDYSFSISNLEPEDIATYYCLQYDNLPRTFGGGTKLEIK has what Inhibition of the binding of indicated biotin-Mab to sGPC3 core (%)?
[reply] 6.7
